Every entry's value here was drawn from patent US20260092061A1.

target entity: BRD9 (Homo sapiens, UniProt Q9H8M2)
Sequence (Q9H8M2 whole entry): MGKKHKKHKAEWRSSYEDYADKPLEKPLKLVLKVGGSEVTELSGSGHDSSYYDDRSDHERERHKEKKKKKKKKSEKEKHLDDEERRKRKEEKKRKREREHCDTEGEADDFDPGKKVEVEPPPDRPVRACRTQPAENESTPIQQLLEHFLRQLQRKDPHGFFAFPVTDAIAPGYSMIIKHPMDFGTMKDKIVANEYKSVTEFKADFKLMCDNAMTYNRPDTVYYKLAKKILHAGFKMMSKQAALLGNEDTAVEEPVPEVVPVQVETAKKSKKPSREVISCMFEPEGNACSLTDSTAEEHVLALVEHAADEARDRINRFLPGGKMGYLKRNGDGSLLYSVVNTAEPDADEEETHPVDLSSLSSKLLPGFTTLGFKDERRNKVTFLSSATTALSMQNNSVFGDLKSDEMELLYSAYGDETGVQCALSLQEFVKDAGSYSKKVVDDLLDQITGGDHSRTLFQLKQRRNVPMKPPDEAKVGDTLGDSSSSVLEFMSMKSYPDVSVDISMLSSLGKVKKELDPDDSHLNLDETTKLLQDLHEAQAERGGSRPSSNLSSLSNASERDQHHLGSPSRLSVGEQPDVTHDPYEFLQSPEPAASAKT
procedure text: BRD9 degradation, HiBiT-BRD9 KI HEK293 (LgBiT) cells, NanoGlo Lytic Endpoint assay (Assay Protocol 1)
Type: cell-based
assay conditions: HEK293; Assay protocol 1; BRD9 degradation; read-out: Dmax
quantity measured: Dmax

CCCC(c1cccc(CCC(=O)N2CCN(Cc3c(OC)cc(-c4cn(C)c(=O)c(C)c4C)cc3OC)CC2)c1)N(C)C(=O)/C(C#N)=C/c1nccs1 (mixture of isomers)
40 to 70%
COc1cc(-c2cn(C)c(=O)c(C)c2C)cc(OC)c1CN1CCC(Oc2cccc(C3CCCN3C(=O)/C(C#N)=C/C(C)(C)C)c2)C1 (mixture of isomers)
> 75%
COc1cc(-c2cn(C)c(=O)c(C)c2C)cc(OC)c1CN1C[C@H](C)N(Cc2cccc3c2CCN(C(=O)/C(C#N)=C/C(C)(C)C)C3C)C[C@H]1C (mixture of isomers)
> 75%
COc1cc(-c2cn(C)c(=O)c(C)c2C)cc(OC)c1CN1CCN(C(=O)c2ccc(C3CCCN3C(=O)/C(C#N)=C/C(C)(C)C)cc2)CC1 (mixture of isomers)
> 75%
COc1cc(-c2cn(C)c(=O)c(C)c2C)cc(OC)c1CN1CCN(Cc2cccc3c2CCN(C(=O)/C(C#N)=C/C(C)(C)C)C3C)C2(CC2)C1 (mixture of isomers)
> 75%
